Entry source: the NIST ThermoML archive (doi:10.1021/je049955d)

- experimental.conditions: 298.15 K, Ring tensiometer
readout.name: surface tension liquid-gas (mN/m)

> print(dat)
                                  compound  output.unit  endpoint.result
 1                                   CCC#N         mN/m             26.9
 2      CCC(C)O (configuration not stated)         mN/m             23.3
 3                                    OCCO         mN/m             47.8
 4                                   CCCCO         mN/m             24.3
 5  COC(=O)CC(C)=O [methyl 3-oxobutanoate]         mN/m             35.7
 6               CCOC(C)=O [ethyl acetate]         mN/m             23.7
 7                                OC1CCCC1         mN/m             32.8
 8                                       O         mN/m            71.95
 9                                CCC(C)=O         mN/m             24.2
10  CCOCCOC(C)=O [2-ethoxyethyl ethanoate]         mN/m             28.7
11                           CC(=O)CC(C)=O         mN/m             30.9
12                               O=C1CCCC1         mN/m               33
